assay: Cytotoxicity against HEK293T cells assessed as inhibition of cell growth incubated for 72 hrs by MTT assay; assay type: toxicity, cell-based, HEK-293T; details: human
Overview of recorded IC50 at 72 h for various compounds
ENDPOINT: IC50 at 72 h (µM)

C[C@]12CC[C@@H]3c4cc(N)c(O)cc4CC[C@H]3[C@@H]1CCC2=O = 36.4
C[C@]12CC[C@@H]3c4ccc(O)cc4CC[C@H]3[C@@H]1CCC2NC(=O)C[Se]C#N (stereo partly drawn) = 25.4

----------
tested on: HepG2; experiment: Antiproliferative activity against human HepG2 cells assessed as inhibition of cell growth incubated for 72 hrs by MTT assay; assay type: functional, cell-based; details: HepG2, 72 h
IC50 overview
ENDPOINT: IC50

C[C@]12CC[C@@H]3c4ccc(OCCCCCCCC[Se]C#N)cc4CC[C@H]3[C@@H]1CCC2=O = 42.5 µM
C[C@]12CC[C@@H]3c4cc(NC(=O)c5ccc(C[Se]C#N)cc5)c(O)cc4CC[C@H]3[C@@H]1CCC2=O = 68.9 µM
COc1ccc2c(c1)CC[C@@H]1[C@@H]2CC[C@]2(C)C(NC(=O)C[Se]C#N)CC[C@@H]12 (some centres undefined) = 10.5 µM
C[C@]12CC[C@@H]3c4cc(N)c(O)cc4CC[C@H]3[C@@H]1CCC2=O = 56.3 µM
